Value source: the supplement of paper PMC6555819

Test system: LXRb homodimer (NR concentration 270 nM)
Assay: PBM binding z-score (relative to random genomic background probes); higher = stronger binding; sequences stand for … in GC…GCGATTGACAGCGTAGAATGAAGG
PBM binding z-score below 0.1 gives Condition not met; PBM binding z-score at or above it gives Condition met.

[[record]]
residue_string = "GATACAGGGTCAAGGCCAGCGTACGCGTATTGAT"
class_assignment = "Condition not met"


Hi, just wondering whether `TAGCCCAGGTCATTCAGGGGCCAGTATAGAAAGC` shows PBM binding z-score of 0.1 or higher.
Condition met

Hi, just wondering whether `ATATGTAGGTTATCGGGTCTTTCAGTTTGCGCAT` shows PBM binding z-score of 0.1 or higher.
Condition met

Hi, just wondering whether `TAGCCTAGGTCATGGGCCAGTATCCCACGCGAAC` shows PBM binding z-score of 0.1 or higher.
Condition not met

Hi, just wondering whether `AGAATGATGTTAAGATCAGGGAAACAGAATACAT` shows PBM binding z-score of 0.1 or higher.
Condition not met

Hi, just wondering whether `GATACAGGGTCAGCTAGAGGACAGAGTATGGAAA` shows PBM binding z-score of 0.1 or higher.
Condition not met

Hi, just wondering whether `CCTGCTAGGTCGTGGTCAGCTAATCTACAGTATG` shows PBM binding z-score of 0.1 or higher.
Condition not met

Hi, just wondering whether `AGAATGAGGTTATAAAGATCAGGGAATTGCGGTC` shows PBM binding z-score of 0.1 or higher.
Condition not met

Hi, just wondering whether `ATACCAAGGTGATCGTGGGGTCGTTGATACTAAC` shows PBM binding z-score of 0.1 or higher.
Condition met

Hi, just wondering whether `TCTATTAGTTGATTAGGGCATCCGAAACAGCGGA` shows PBM binding z-score of 0.1 or higher.
Condition met

Hi, just wondering whether `TCTGCTAGGTCAATGATGGTCAGCTAATCTGCTA` shows PBM binding z-score of 0.1 or higher.
Condition not met

Hi, just wondering whether `ACAGACAGGTGATCAAGGTAACTCAGGCTATCAT` shows PBM binding z-score of 0.1 or higher.
Condition not met

Hi, just wondering whether `TCATATAGGTAAATGCTAGGTGAAAGTGCGATCT` shows PBM binding z-score of 0.1 or higher.
Condition met

Hi, just wondering whether `TCTATTAGTTGATTAGGCCAACCGAAACAGCGGA` shows PBM binding z-score of 0.1 or higher.
Condition met

Hi, just wondering whether `ACTATTAGTTGACTTGGGGCAACCGATACGACGC` shows PBM binding z-score of 0.1 or higher.
Condition met

Hi, just wondering whether `ATCGAAAGGTCGAGGTGATTATAGAGAAAGGGAA` shows PBM binding z-score of 0.1 or higher.
Condition met

Hi, just wondering whether `TGTCAAAATTCAAAGGTAACGTAAGTATCCACAC` shows PBM binding z-score of 0.1 or higher.
Condition met

Hi, just wondering whether `CCTTACGGGTCAAGGTTTTAGCACGGGTGGTACG` shows PBM binding z-score of 0.1 or higher.
Condition not met

---

Can you tell me PBM binding z-score for the items I'm about to list?
System: RXRa homodimer (NR concentration 180 nM)
Assay: PBM binding z-score (relative to random genomic background probes); higher = stronger binding; sequences stand for … in GC…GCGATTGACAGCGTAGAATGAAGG
Give bare numbers.

[[record]]
residue_string = "AGAATGATGTTATACGTAGATCAGGGAAGAAAGT"
study_system = "RXRa homodimer (NR concentration 180 nM)"
reported = -0.0318

[[record]]
residue_string = "AGATTGAGGTTAAGATCAGGGAAACAGAATACAT"
study_system = "RXRa homodimer (NR concentration 180 nM)"
reported = 2.48

[[record]]
residue_string = "CGTCCAAGGCCAAAGGTCAGTGAAGAGATGACGG"
study_system = "RXRa homodimer (NR concentration 180 nM)"
reported = 5.47

[[record]]
residue_string = "TAGCCTAGATCATTCAGGGGCCAGTATAGAAAGC"
study_system = "RXRa homodimer (NR concentration 180 nM)"
reported = 0.341

[[record]]
residue_string = "TTACCAAGGTGAAAGGTCGTCGATGCACGCCTTG"
study_system = "RXRa homodimer (NR concentration 180 nM)"
reported = 6.2

[[record]]
residue_string = "ATATGTAGGTTACATCCGGGTCATTCGGGCTATG"
study_system = "RXRa homodimer (NR concentration 180 nM)"
reported = 3.01

[[record]]
residue_string = "CAAATTAGGTCAAGGTCAAAGTCGGTTTGTGCCA"
study_system = "RXRa homodimer (NR concentration 180 nM)"
reported = 6.65

[[record]]
residue_string = "CCGACTGGGGCAATGGTTACCATACTCAGTACGA"
study_system = "RXRa homodimer (NR concentration 180 nM)"
reported = 0.082


Each sequence below has a reported value. Please supply its PBM binding z-score.
1. TCATATAGGTAAAAGGTGAATGTCGGTGTGGTAA
2. TGAATGAGGTTAAAGATCTGGGAACGTGGCGTCG
3. TCTAGTTGGTCACGGAGGTCAGACACGACGGGTA
4. AGAACGAGCGCACGCTGAGTTGATAGCAGAGTAG

1. 2.85
2. 2.49
3. 3.4
4. -0.489
